Origin of values: PubChem BioAssay AID588511

TEST_TARGET: Anoctamin-1 (Mus musculus) (UniProt Q8BHY3)
Sequence (Q8BHY3 whole entry, looked up): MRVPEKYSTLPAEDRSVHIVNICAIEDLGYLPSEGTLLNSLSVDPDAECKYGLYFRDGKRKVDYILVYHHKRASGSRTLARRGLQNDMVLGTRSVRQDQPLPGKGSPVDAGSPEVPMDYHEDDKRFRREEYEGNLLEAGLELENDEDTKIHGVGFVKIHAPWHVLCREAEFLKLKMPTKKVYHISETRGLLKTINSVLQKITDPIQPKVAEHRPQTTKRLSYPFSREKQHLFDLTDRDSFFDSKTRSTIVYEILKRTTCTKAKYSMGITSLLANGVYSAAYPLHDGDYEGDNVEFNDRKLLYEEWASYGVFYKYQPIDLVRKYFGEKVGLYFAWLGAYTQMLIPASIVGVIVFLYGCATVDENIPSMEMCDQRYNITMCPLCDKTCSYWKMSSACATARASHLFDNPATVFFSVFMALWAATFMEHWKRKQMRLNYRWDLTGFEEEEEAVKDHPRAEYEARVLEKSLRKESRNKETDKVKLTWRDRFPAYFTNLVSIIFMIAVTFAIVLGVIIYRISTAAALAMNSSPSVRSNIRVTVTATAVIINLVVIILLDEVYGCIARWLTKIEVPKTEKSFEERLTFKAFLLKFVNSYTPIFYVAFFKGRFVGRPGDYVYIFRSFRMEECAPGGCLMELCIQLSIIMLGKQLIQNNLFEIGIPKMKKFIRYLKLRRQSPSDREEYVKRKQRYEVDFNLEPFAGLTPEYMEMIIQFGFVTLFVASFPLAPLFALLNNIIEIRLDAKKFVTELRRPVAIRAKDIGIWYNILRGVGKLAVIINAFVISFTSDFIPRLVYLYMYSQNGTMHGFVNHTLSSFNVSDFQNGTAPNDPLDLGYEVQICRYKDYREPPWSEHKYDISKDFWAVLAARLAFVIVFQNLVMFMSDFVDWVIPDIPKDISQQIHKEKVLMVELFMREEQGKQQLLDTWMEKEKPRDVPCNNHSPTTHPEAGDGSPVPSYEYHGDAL
MEASUREMENT_DESCRIPTION: blockers of mouse ANO1 Ca-activated Cl channel – cell-based, HTS, primary screen (AID 588511)
TEST_CONTEXT: HEK293 TMEM16A/YFP iodide influx fluorescence, ionomycin; at 10 µM
Among all 310,000 compounds or so, about 3,600 (1.2%) were called active.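 Rule for the calls: active = ratio plate-corrected score three or more library SD toward inhibition, starting fluorescence score within five deviations; inactive = the rest.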 Only a selection was taken, and actives are over-represented in it overall.
Possible outcomes: active, inactive

# MOLECULE, QUALITATIVE_LABEL
data = [
    ("O=C(NC(=S)Nc1ncccn1)c1ccccc1Br", "inactive"),
    ("CCCOc1ccc(C2=CSC3=NCCN23)cc1Cl", "inactive"),
    ("COc1ccc(-c2csc(NC(=O)COC(=O)c3ccc(Br)o3)n2)cc1", "inactive"),
    ("O=C(CC(Cc1ccccc1)C(=O)O)NCCc1ccc2c(c1)OCO2 (stereo not given)", "inactive"),
    ("Cc1onc(-c2ccccc2)c1C(=O)NNC(=S)NC(=O)c1ccc(F)cc1", "inactive"),
    ("COc1ccc(-c2nc(CCNC(=O)c3ccc(Br)o3)cs2)cc1", "active"),
    ("CC1(C)C=C2[C@H]3CC[C@@H]4[C@@]5(C)CCC(=O)C(C)(C)[C@@H]5CC[C@@]4(C)[C@]3(C)CC[C@@]2(C(=O)O)CC1", "active"),
    ("O=C1CCC(=O)N(O)CCCCCNC(=O)CCC(=O)N(O)CCCCCNC(=O)CCC(=O)N(O)CCCCCN1", "inactive"),
    ("O=C(NCCc1ccc2c(c1)OCCO2)c1cc2ccccc2o1", "active"),
    ("Cc1ccc(/C=N/NC(=O)C(NC(=O)c2ccccc2)c2n[nH]c(=O)c3ccccc23)cc1 (stereo not given)", "inactive"),
]
